system-under-test: human A3 receptors (Homo sapiens)
Construct: expressed in transfected cells; host or cells: HEK-293 cells (membranes)
Sequence (P0DMS8 1-318): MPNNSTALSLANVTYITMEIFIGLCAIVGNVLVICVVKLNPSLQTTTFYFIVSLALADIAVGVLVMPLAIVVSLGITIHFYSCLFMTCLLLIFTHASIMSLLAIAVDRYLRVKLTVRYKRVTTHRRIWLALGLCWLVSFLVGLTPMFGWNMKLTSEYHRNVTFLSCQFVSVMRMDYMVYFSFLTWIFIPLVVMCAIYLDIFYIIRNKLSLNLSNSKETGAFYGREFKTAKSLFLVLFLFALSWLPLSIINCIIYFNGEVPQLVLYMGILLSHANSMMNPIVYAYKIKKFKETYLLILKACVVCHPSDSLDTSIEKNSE
protocol: radioligand binding, displacement of specific [125I]AB-MECA binding at human A3 receptors expressed in HEK-293 cells
measurement-context: Table 3; [125I]AB-MECA, HEK-293 membranes; read-out: Ki hA3
reported-metric: pKi
// field semantics: pKi = negative decimal log of concentration (mol/L)

- compound: "CCOc1ccc(-c2oc3cc(OCC)cc(OCC)c3c(=O)c2OCC)c(OCC)c1"
  reported-metric: "pKi"
  result-value: 5.14
- compound: "COc1cc(OC)c(-c2oc3ccccc3c(=O)c2O)c(OC)c1 [Compound 9, reference compound]"
  reported-metric: "pKi"
  result-value: 4.30

# input Consider the compound shown here: "CCCOc1cc(OCCC)c2c(=O)c(OCCC)c(-c3ccccc3)oc2c1" What is its recorded pKi?
# output 6.50

# input // query: CCOc1ccc(-c2oc3cc(OCC)cc(O)c3c(=O)c2OCC)c(OCC)c1 [Compound 7, 2',4',3,7-Tetraethoxy-5-hydroxymorin]
# output 5.32
